- Subject of test: SvelOBP1
- Method summary: Competitive fluorescence binding assay (displacement of 1-NPN)
- Set-up: species or system Sympiezomias velatus
- Test settings: class in words by Ki; read-out: binding affinity class
pKi: −log10 of the molar value.
pKi by entry:

Query: For the record CCc1ccc(C(C)=O)cc1 [1-(4-ethylphenyl)ethanone] , what value of pKi is listed for SvelOBP1?
Reply: 4.80 to 5.00

Query: For the record CC/C=C\CCO [(Z)-hex-3-en-1-ol] , what value of pKi is listed for SvelOBP1?
Reply: 5.00 to 5.30

Query: For the record CCCCCCCCCCCCCCCC(=O)O [Hexadecanoic acid] , what value of pKi is listed for SvelOBP1?
Reply: 4.80 to 5.00

---

- Subject of test: SvelOBP1
- Method summary: Competitive fluorescence binding assay (displacement of 1-NPN)
- Set-up: species or system Sympiezomias velatus
- Test settings: Ki=IC50/(1+[1-NPN]/K1-NPN); 2 μM SvelOBP1/1-NPN, pH7.4; mean ± SEM; read-out: Ki (inhibitory constant)
Measurement label: Ki

CCc1ccc(C(C)=O)cc1 : 10.9 µM

Now examine the next entry.
Query: Can you look up the measured Ki of CC/C=C\CCOC(=O)CCC [[(Z)-hex-3-enyl] butanoate] for me?
Reply: 12.9 µM

---

- Subject of test: SvelOBP1
- Method summary: Competitive fluorescence binding assay (displacement of 1-NPN)
- Test settings: 2 μM recombinant SvelOBP1/1-NPN, ligand 0-16 μM, 20 mM Tris-HCl pH7.4; mean ± SEM, three replicates; read-out: IC50 (ligand concentration replacing 50% of initial fluorescence of SvelOBP1/1-NPN mixture)
pIC50: −log10 of the molar value.
pIC50 by entry:

Use the examples below as a reference point.
O=C1CCCC1C1CCCC1 (stereo not drawn) : < 4.80
CCC/C=C/COC(C)=O [[(E)-hex-2-en-1-yl] acetate] : < 4.80

Now examine the next entry.
Query: Can you look up the measured pIC50 of C/C(=C\CO)CCCC(C)CCCC(C)CCCC(C)C (stereo not drawn) for me?
Reply: < 4.80

---

Ki by entry:
- Subject of test: SvelOBP1
- Method summary: Competitive fluorescence binding assay (displacement of 1-NPN)
- Design: species or system Sympiezomias velatus
- Test settings: Ki=IC50/(1+[1-NPN]/K1-NPN); 2 μM SvelOBP1/1-NPN, pH7.4; mean ± SEM; read-out: Ki (inhibitory constant)
Dear colleague, please send the value followed by its unit.

Use the examples below as a reference point.
CCC/C=C/CO [(E)-hex-2-en-1-ol] : 12.8 µM
C=C/C(C)=C/C/C=C(\C)CCC=C(C)C : 8.73 µM

Now examine the next entry.
Query: Can you look up the measured Ki of CC/C=C\CCOC(=O)CC(C)C [[(Z)-hex-3-enyl] 3-methylbutanoate] for me?
Reply: 11.9 µM

---

- Subject of test: SvelOBP1
- Method summary: Competitive fluorescence binding assay (displacement of 1-NPN)
- Parameters: species or system Sympiezomias velatus
- Test settings: Ki=IC50/(1+[1-NPN]/K1-NPN); 2 μM SvelOBP1/1-NPN, pH7.4; mean ± SEM; read-out: Ki (inhibitory constant)
Measurement label: Ki
Dear colleague, please send the value followed by its unit.

Use the examples below as a reference point.
CCCCOC(=O)c1ccccc1C(=O)OCCCC [Dibutyl benzene-1,2-dicarboxylate] : 6.66 µM
CC/C=C\CCO [(Z)-hex-3-en-1-ol] : 7.98 µM

Query: Can you look up the measured Ki of CC/C=C\CCOC(=O)C(C)CC (stereo not shown) [[(Z)-hex-3-enyl] 2-methylbutanoate] for me?
Reply: 11.2 µM

Query: Can you look up the measured Ki of CCOC(=O)C(C)CC (stereo not shown) [Ethyl 2-methylbutyrate] for me?
Reply: 9.37 µM
